Target: recombinant soluble homotrimeric HA of A/common magpie/Hong Kong/5052/07 (H5N1) (Influenza A virus A/common magpie/Hong Kong/5052/2007(H5N1))
Assay: HA microarray, BCC supernatant
Details: remark: other sources report otherwise
measurement.kind: Trimeric HA Binding: RLU (RLU)
Reply numerically in RLU, unit not repeated.

Problem: # input binder: TCN-523 (5248_A17) (antibody, V domains shown) VH: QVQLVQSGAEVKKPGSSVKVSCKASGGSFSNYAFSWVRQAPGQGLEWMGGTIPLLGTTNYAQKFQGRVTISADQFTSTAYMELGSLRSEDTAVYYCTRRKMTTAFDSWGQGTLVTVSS VL: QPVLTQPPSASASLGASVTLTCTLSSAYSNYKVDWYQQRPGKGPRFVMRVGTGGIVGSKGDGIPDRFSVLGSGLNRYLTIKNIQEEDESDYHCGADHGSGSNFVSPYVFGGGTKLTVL ; wanted: its Trimeric HA Binding: RLU
Solution: 45800

Problem: # input binder: TCN-540 (5060_F05) (antibody, V domains shown) VH: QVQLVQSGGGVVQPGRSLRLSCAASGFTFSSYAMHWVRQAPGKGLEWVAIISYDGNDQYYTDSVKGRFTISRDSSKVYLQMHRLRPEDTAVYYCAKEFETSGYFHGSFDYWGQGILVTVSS VL: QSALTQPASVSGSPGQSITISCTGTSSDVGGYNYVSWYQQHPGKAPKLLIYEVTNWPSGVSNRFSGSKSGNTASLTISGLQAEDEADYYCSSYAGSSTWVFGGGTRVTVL ; wanted: its Trimeric HA Binding: RLU
Solution: 113

Problem: # input binder: TCN-530 (5248_H10a) (antibody, V domains shown) VH: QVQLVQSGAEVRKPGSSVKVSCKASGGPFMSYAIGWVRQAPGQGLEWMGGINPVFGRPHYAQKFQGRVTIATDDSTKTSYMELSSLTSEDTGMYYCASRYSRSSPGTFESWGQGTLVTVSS VL: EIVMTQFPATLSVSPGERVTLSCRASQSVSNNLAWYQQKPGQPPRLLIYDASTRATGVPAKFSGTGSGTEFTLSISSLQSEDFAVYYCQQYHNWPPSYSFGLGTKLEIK ; wanted: its Trimeric HA Binding: RLU
Solution: 42500

Problem: # input binder: TCN-537 (3194_D21) (antibody, V domains shown) VH: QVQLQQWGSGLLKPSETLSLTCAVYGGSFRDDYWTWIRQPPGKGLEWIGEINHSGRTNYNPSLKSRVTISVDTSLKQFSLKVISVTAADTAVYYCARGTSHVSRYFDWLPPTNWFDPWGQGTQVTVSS VL: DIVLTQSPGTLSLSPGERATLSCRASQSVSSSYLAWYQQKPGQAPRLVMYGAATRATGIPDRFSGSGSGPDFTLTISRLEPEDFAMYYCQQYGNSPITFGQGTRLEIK ; wanted: its Trimeric HA Binding: RLU
Solution: 18700

Problem: # input binder: TCN-553 (5261_C18) (antibody, V domains shown) VH: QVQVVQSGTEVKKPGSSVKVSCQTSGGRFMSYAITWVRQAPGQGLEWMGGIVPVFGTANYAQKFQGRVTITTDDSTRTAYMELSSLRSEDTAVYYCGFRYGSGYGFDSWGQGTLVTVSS VL: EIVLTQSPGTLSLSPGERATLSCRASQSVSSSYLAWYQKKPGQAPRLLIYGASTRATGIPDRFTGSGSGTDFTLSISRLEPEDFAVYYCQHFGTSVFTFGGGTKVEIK ; wanted: its Trimeric HA Binding: RLU
Solution: 26000

Problem: # input binder: TCN-534 (5249_B02) (antibody, V domains shown) VH: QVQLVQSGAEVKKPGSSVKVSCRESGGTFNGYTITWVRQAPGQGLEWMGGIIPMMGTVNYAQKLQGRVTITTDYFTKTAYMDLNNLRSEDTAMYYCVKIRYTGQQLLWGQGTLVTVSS VL: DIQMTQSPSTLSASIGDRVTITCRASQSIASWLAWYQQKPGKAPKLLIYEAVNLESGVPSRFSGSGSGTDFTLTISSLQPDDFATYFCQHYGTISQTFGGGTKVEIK ; wanted: its Trimeric HA Binding: RLU
Solution: 32500

Problem: # input binder: TCN-555 (5246_L16) (antibody, V domains shown) VH: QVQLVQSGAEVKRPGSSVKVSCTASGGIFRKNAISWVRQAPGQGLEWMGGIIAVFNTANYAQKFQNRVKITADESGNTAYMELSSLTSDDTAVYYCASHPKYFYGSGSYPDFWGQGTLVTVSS VL: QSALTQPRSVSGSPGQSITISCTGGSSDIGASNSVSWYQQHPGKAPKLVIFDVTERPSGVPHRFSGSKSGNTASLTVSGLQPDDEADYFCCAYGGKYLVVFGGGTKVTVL ; wanted: its Trimeric HA Binding: RLU
Solution: 16100
